Assay: chemical genetic growth profiling, strain panel (AID 1159580);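 also: tested at 20 µM; growth read once vehicle control cultures reached saturation at 30 °C; lower values mean less growth of the strain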
Details: S. cerevisiae deletion strains, growth OD, locus YLR258W, strain gsy2
Screen size: about 5,500 compounds; about 2,000 (36%) were called active. Not shown: some 18% with an inconclusive outcome. Rule as the data show it: active = normalized growth mostly below about 0.91 (no sharp cut-off); inconclusive = no clear call, values can overlap the other calls; inactive = mostly above about 0.92. Some of the results follow.
Assign a class; possible classes are active, inactive

Below are worked cases with known answers.
INSERT INTO assay_data (molecule, category) VALUES
  ('CC(=O)[C@@]1(O)CCC2C3CCC4=CC(=O)CC[C@]4(C)C3CC[C@@]21C (some centres undefined)', 'inactive'),
  ('Cc1onc(-c2ccccc2)c1C(=O)NC1C(=O)N2[C@@H]1SC(C)(C)[C@@H]2C(=O)O (some centres undefined)', 'inactive'),
  ('COc1cccc(OC)c1C(=O)N[C@@H]1C(=O)N2[C@@H]1SC(C)(C)[C@@H]2C(=O)O', 'inactive');

# fetch the recorded call for Cc1onc(-c2ccccc2Cl)c1C(=O)N[C@@H]1C(=O)N2[C@@H]1SC(C)(C)[C@@H]2C(=O)O here
inactive

Provenance of the data: PubChem BioAssay AID1159580
